# Measurement Target: Mpro (Severe acute respiratory syndrome coronavirus 2, UniProt P0DTD1)
# Assay Procedure: Mpro degradation in HEK293 cells stably expressing wild-type Mpro (tetracycline-inducible), Western Blot with anti-T7 antibodies
# Assay type: cell-based, SARS-CoV-2
# Recorded Conditions: HEK293, 24 h, read-out: Mpro (relative concentration)
For each record, check the reported remaining activity at 0.5 µM: if it is below 50% write 1.0, else write 0.0.

O=C(CCOCCNc1cccc2c1C(=O)N(C1CCC(=O)NC1=O)C2=O)NCCn1cc(NC(=O)c2c(Cl)cccc2Cl)c(C(=O)NC2CCNCC2)n1 (stereo not drawn)
1.0
O=C(CCOCCOCCNc1cccc2c1C(=O)N(C1CCC(=O)NC1=O)C2=O)NCCn1cc(NC(=O)c2c(Cl)cccc2Cl)c(C(=O)NC2CCNCC2)n1 (stereo not drawn)
1.0
O=C(CCOCCOCCOCCOCCOCCNc1cccc2c1C(=O)N(C1CCC(=O)NC1=O)C2=O)NCCn1cc(NC(=O)c2c(Cl)cccc2Cl)c(C(=O)NC2CCNCC2)n1 (stereo not drawn)
0.0
Cc1ccc(NC(=O)c2ccc(CN3CCN(C(=O)CCOCCOCCOCCOCCNc4cccc5c4C(=O)N(C4CCC(=O)NC4=O)C5=O)CC3)cc2)cc1Nc1nc(-c2cccnc2)cs1 (stereo not drawn)
0.0
O=C(CCOCCOCCOCCNc1cccc2c1C(=O)N(C1CCC(=O)NC1=O)C2=O)NCCn1cc(NC(=O)c2c(Cl)cccc2Cl)c(C(=O)NC2CCNCC2)n1 (stereo not drawn)
0.0

# next compound below
IN: Is remaining activity at 0.5 µM of Cc1ccc(NC(=O)c2ccc(CN3CCN(C(=O)CCOCCOCCOCCNc4cccc5c4C(=O)N(C4CCC(=O)NC4=O)C5=O)CC3)cc2)cc1Nc1nc(-c2cccnc2)cs1 (stereo not drawn) strictly below 50%?
OUT: 1.0

###

# System: human coronavirus OC43 (HCoV-OC43)
# Assay Procedure: Anti-virus activity, HCoV-OC43 plaque formation in RD cells
# Recorded Conditions: Betacoronavirus 1, OC43, RD
Measured Endpoint: EC50 (nM)
Supply the numeric figure in nM, leaving out any unit text.

Cc1ccc(NC(=O)c2ccc(CN3CCN(C(=O)CCOCCNc4cccc5c4C(=O)N(C4CCC(=O)NC4=O)C5=O)CC3)cc2)cc1Nc1nc(-c2cccnc2)cs1 (stereo not shown)
336
O=C(CCOCCOCCNc1cccc2c1C(=O)N(C1CCC(=O)NC1=O)C2=O)NCCn1cc(NC(=O)c2c(Cl)cccc2Cl)c(C(=O)NC2CCNCC2)n1 (stereo not shown)
380
Cc1ccc(NC(=O)c2ccc(CN3CCN(C(=O)CCOCCOCCOCCNc4cccc5c4C(=O)N(C4CCC(=O)NC4=O)C5=O)CC3)cc2)cc1Nc1nc(-c2cccnc2)cs1 (stereo not shown)
310

# next compound below
IN: Please tell me the measured EC50 for Cc1ccc(NC(=O)c2ccc(CN3CCN(C(=O)CCOCCOCCNc4cccc5c4C(=O)N(C4CCC(=O)NC4=O)C5=O)CC3)cc2)cc1Nc1nc(-c2cccnc2)cs1 (stereo not shown) ; system: human coronavirus OC43 (HCoV-OC43).
OUT: 318

###

# Measurement Target: Mpro (Severe acute respiratory syndrome coronavirus 2, UniProt P0DTD1)
# Assay Procedure: Mpro degradation in HEK293 cells stably expressing wild-type Mpro (tetracycline-inducible), Western Blot with anti-T7 antibodies
# Format: cell-based, SARS-CoV-2
# Recorded Conditions: HEK293, 24 h, compound at 500 nM; control 100%; Tables 1-3; read-out: Mpro (relative concentration)
Parameter remaining activity at 0.5 µM: see the listing below.
Provide the reading as a plain figure in %.

// solved cases for remaining activity at 0.5 µM follow
CC(C)C[C@H](NC(=O)[C@@H](NC(=O)[C@H](C)NC(=O)CCOCCOCCOCCNc1cccc2c1C(=O)N(C1CCC(=O)NC1=O)C2=O)C(C)C)C(=O)N[C@H](C#N)C[C@@H]1CCNC1=O (stereo partly shown)
45
CC(C)C[C@H](NC(=O)[C@@H](NC(=O)[C@H](C)NC(=O)CCOCCOCCOCCOCCNc1cccc2c1C(=O)N(C1CCC(=O)NC1=O)C2=O)C(C)C)C(=O)N[C@H](C#N)C[C@@H]1CCNC1=O (stereo partly shown)
70
CC(C)C[C@H](NC(=O)[C@@H](NC(=O)[C@H](C)NC(=O)CCOCCNc1cccc2c1C(=O)N(C1CCC(=O)NC1=O)C2=O)C(C)C)C(=O)N[C@H](C#N)C[C@@H]1CCNC1=O (stereo partly shown)
50

Kindly review the next compound as well.
IN: Look up remaining activity at 0.5 µM of CC(C)C[C@H](NC(=O)[C@@H](NC(=O)[C@H](C)NC(=O)CCOCCOCCNc1cccc2c1C(=O)N(C1CCC(=O)NC1=O)C2=O)C(C)C)C(=O)N[C@H](C#N)C[C@@H]1CCNC1=O (stereo partly shown) and report it.
OUT: 40

###

# Measurement Target: Mpro (Severe acute respiratory syndrome coronavirus 2, UniProt P0DTD1)
# Assay Procedure: Mpro degradation in HEK293 cells stably expressing wild-type Mpro (tetracycline-inducible), Western Blot with anti-T7 antibodies
# Type: cell-based, SARS-CoV-2
# Recorded Conditions: HEK293, 24 h, read-out: Mpro (relative concentration)
# reported remaining activity at 0.5 µM; entries follow
Answer as a quantity: numeral, then unit.

Answered examples (3):
Cc1ccc(NC(=O)c2ccc(CN3CCN(C(=O)CCOCCOCCOCCOCCOCCNc4cccc5c4C(=O)N(C4CCC(=O)NC4=O)C5=O)CC3)cc2)cc1Nc1nc(-c2cccnc2)cs1 (stereo not shown)
75%
Cc1ccc(NC(=O)c2ccc(CN3CCN(C(=O)CCOCCOCCNc4cccc5c4C(=O)N(C4CCC(=O)NC4=O)C5=O)CC3)cc2)cc1Nc1nc(-c2cccnc2)cs1 (stereo not shown)
32%
O=C(CCOCCOCCOCCOCCNc1cccc2c1C(=O)N(C1CCC(=O)NC1=O)C2=O)NCCn1cc(NC(=O)c2c(Cl)cccc2Cl)c(C(=O)NC2CCNCC2)n1 (stereo not shown)
65%

Moving on to another molecule below.
IN: Quickly give me recorded remaining activity at 0.5 µM for Cc1ccc(NC(=O)c2ccc(CN3CCN(C(=O)CCOCCNc4cccc5c4C(=O)N(C4CCC(=O)NC4=O)C5=O)CC3)cc2)cc1Nc1nc(-c2cccnc2)cs1 (stereo not shown)
OUT: 45%

###

# Tested on: human coronavirus OC43 (HCoV-OC43)
# Assay Procedure: Anti-virus activity, HCoV-OC43 plaque formation in RD cells
# Recorded Conditions: Betacoronavirus 1, OC43, RD
Recorded measurements of pEC50, one per entry
Please express pEC50 as -log10 of the molar concentration.

Field: example entries. Status: answers known.
O=C(CCOCCOCCOCCOCCNc1cccc2c1C(=O)N(C1CCC(=O)NC1=O)C2=O)NCCn1cc(NC(=O)c2c(Cl)cccc2Cl)c(C(=O)NC2CCNCC2)n1 (stereo not drawn) [MP-31]
6.28
Cc1ccc(NC(=O)c2ccc(CN3CCN(C(=O)CCOCCOCCOCCOCCOCCNc4cccc5c4C(=O)N(C4CCC(=O)NC4=O)C5=O)CC3)cc2)cc1Nc1nc(-c2cccnc2)cs1 (stereo not drawn) [MP-22]
6.21
O=C(CCOCCOCCOCCNc1cccc2c1C(=O)N(C1CCC(=O)NC1=O)C2=O)NCCn1cc(NC(=O)c2c(Cl)cccc2Cl)c(C(=O)NC2CCNCC2)n1 (stereo not drawn) [MP-30]
6.36
O=C(CCOCCOCCOCCOCCOCCNc1cccc2c1C(=O)N(C1CCC(=O)NC1=O)C2=O)NCCn1cc(NC(=O)c2c(Cl)cccc2Cl)c(C(=O)NC2CCNCC2)n1 (stereo not drawn) [MP-32]
6.08
O=C(CCOCCNc1cccc2c1C(=O)N(C1CCC(=O)NC1=O)C2=O)NCCn1cc(NC(=O)c2c(Cl)cccc2Cl)c(C(=O)NC2CCNCC2)n1 (stereo not drawn) [MP-28]
6.50

IN: For the molecule Cc1ccc(NC(=O)c2ccc(CN3CCN(C(=O)CCOCCOCCOCCOCCNc4cccc5c4C(=O)N(C4CCC(=O)NC4=O)C5=O)CC3)cc2)cc1Nc1nc(-c2cccnc2)cs1 (stereo not drawn) [MP-21] , give its measured pEC50 value.
OUT: 6.32
